test system: NCI-H226; assay: NCI tumour cell line growth inhibition, 48 h
Calls of active or inactive are those of the source. Cut-off read from the data, not from the text of the source: active = GI50 up to about 1.1 µM and inactive = higher.
Reply using exactly one outcome from true = active, false = inactive

q: Assay outcome for CCOC(=O)Cn1c2ccc(Br)cc2c2nc3ccccc3nc21 : what was it?
a: false

q: Assay outcome for Cc1nc(-c2ccccc2)cc2c1c(=O)oc1ccccc12 : what was it?
a: false

q: Assay outcome for O=C(O)CCCc1ccc2c(c1)C(C(=O)O)CC2 (stereo not given) : what was it?
a: false

q: Assay outcome for COc1cccc2c1C(=O)c1c(O)c3c(c(O)c1C2=O)C[C@@](O)(C(=O)CO)CC3OC1CC(NCCCCC(OC(C)=O)OC(C)=O)C(O)C(C)O1 (stereo not given in full) : what was it?
a: true

q: Assay outcome for COc1cc2c(c(OC)c1OC)-c1ccc(SC)c(=O)cc1C(CC(=O)Oc1ccc(F)cc1)C2 (stereo not given) : what was it?
a: true

q: Assay outcome for Nc1cc2c(cc1[N+](=O)[O-])[nH]c1c(-c3ccccc3)nccc12 : what was it?
a: false

q: Assay outcome for C=CCNc1ccc(C)cc1 : what was it?
a: false

q: Assay outcome for COc1nc(NC2OCC(OC(C)=O)C(OC(C)=O)C2OC(C)=O)c(-c2csc(N)n2)c(=O)n1C (stereo not given) : what was it?
a: false

q: Assay outcome for O=C1Nc2ccc(S(=O)(=O)NCCO)cc2/C1=C1/Nc2ccccc2C1=O : what was it?
a: false

q: Assay outcome for CCC(/C=C/c1ccccc1)=N\NC(=S)N/N=C(/C=C/c1ccccc1)CC : what was it?
a: false
